# Tested on: TNFα
# assay.remarks: cells
# Format: cell-based, human
# protocol.conditions: Homo sapiens, Monocyte, LPS-stimulated human monocytes, TNFα by TR-FRET; read-out: EC50 TNF
recorded.metric: EC50

# chemical.string, recorded.metric, value.observed
data = [
    ("CC(C)(O)[C@H](F)CNC(=O)c1cnc(-c2ccc3cc(C#N)cnn23)cc1Nc1ccc(C(C)(C)N2CCOC2=O)cc1", "EC50", "13 nM"),
    ("CC(C)(O)[C@H](F)CNC(=O)c1cnc(-c2ccc3cc(C#N)cnn23)cc1Nc1ccn2nccc2c1", "EC50", "67 nM"),
]

Shifting focus to the compound that follows.
`N#Cc1cnn2c(-c3cc(NC45CCC(O)(CC4)CC5)c(C(=O)NCCC(=O)N4CC(F)(F)C4)cn3)ccc2c1` yielded EC50 of 129 nM

----------
# test.system: UniProt:Q9NWZ3
# assay.remarks: biochemical
# Type: biochemical
# protocol.conditions: IRAK4 enzyme, TR-FRET (HTRF), 500 μM ATP
pIC50: −log10 of the molar value.
recorded.metric: pIC50

# molecule, value.observed
data = [
    ("CC(C)(O)[C@H](F)CNC(=O)c1cnc(-c2ccc3cc(C#N)cnn23)cc1N[C@@]12CC[C@@H](C1)[C@@H](O)C2", "> 9.00"),
    ("COC(=O)NC1CC2(C1)CC(Nc1cc(-c3ccc4cc(C#N)cnn34)ncc1C(=O)NC[C@@H](F)C(C)(C)O)C2 (single isomer, unassigned) [Example 757]", "> 9.00"),
]

Now consider the entry below.
Short answer on UniProt:Q9NWZ3 for `CC(C)(O)[C@H](F)CNC(=O)c1cnc(-c2ccc3cc(C#N)cnn23)cc1N[C@H]1C[C@H](CNC(=O)C(F)(F)F)C1` , pIC50: > 9.00

----------
# test.system: IRAK4 enzyme (Homo sapiens (Human))
# assay.remarks: biochemical
# Type: biochemical
# protocol.conditions: IRAK4 enzyme, TR-FRET (HTRF), 500 μM ATP
recorded.metric: pIC50
To interpret pIC50, take it as minus log10 of a concentration measured in moles per litre.

Item `CC(C)(O)[C@H](F)CNC(=O)c1cnc(-c2ccc3cc(C#N)cnn23)cc1Nc1cnc(N2CC3(CCOCC3)C2)nc1` ; assay system IRAK4 enzyme (Homo sapiens (Human)); pIC50 reported as 9.00

Given the molecule `CC(C)(O)[C@H](F)CNC(=O)c1cnc(-c2ccc3cc(C#N)cnn23)cc1N[C@H]1C[C@H](Cn2cncn2)C1` and test system IRAK4 enzyme (Homo sapiens (Human)), the measured pIC50 is 9.00

# lookup: `CC(C)(O)[C@H](F)CNC(=O)c1cnc(-c2ccc3cc(C#N)cnn23)cc1N[C@@H]1CC[C@@H](c2cnco2)OC1` on IRAK4 enzyme (Homo sapiens (Human)), pIC50 = 9.00

----------
# test.system: IRAK4 enzyme (Homo sapiens (Human), UniProt Q9NWZ3)
# Sequence (Q9NWZ3 whole entry): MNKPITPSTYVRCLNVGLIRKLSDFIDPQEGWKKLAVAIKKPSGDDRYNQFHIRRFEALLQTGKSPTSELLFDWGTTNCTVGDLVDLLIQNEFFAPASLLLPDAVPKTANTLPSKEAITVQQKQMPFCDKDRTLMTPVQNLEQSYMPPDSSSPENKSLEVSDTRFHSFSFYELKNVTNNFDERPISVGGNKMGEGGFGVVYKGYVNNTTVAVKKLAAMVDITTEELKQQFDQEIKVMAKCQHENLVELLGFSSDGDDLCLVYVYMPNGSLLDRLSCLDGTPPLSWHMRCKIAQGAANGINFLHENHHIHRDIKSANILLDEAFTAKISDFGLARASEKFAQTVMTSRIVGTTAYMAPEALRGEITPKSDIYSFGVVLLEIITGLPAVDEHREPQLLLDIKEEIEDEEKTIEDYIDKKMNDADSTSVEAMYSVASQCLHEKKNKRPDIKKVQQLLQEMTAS
# assay.remarks: biochemical
# Assay type: biochemical
# protocol.conditions: IRAK4 enzyme, TR-FRET, 500 μM ATP
Known pIC50 of a selection of molecules
Hey, just a heads up that pIC50 is the negative log base 10 of the concentration in molar.

# molecule, pIC50
rows = [
    ("COC(=O)NC(C)(C)CCNC(=O)c1cnc(-c2ccc3cc(C#N)cnn23)cc1NC12CCC(O)(CC1)CC2 [Example 343]", 9.00),
]

From here, focus on the item given below.
Sure, the documented pIC50 for CN(C)S(=O)(=O)N[C@H]1CC[C@H](Nc2cc(-c3ccc4cc(C#N)cnn34)ncc2C(=O)NC[C@@H](F)C(C)(C)O)CC1 [Example 285] is 8.70

----------
# test.system: IRAK4 enzyme (Homo sapiens (Human))
# assay.remarks: biochemical
# Format: biochemical
# protocol.conditions: IRAK4 enzyme, TR-FRET, 500 μM ATP
pIC50: −log10 of the molar value.
Recorded measurements of pIC50, one per entry

# chemical.string, pIC50
rows = [
    ("CC(C)Nc1cc(-c2ccc3cc(C#N)cnn23)ncc1C(=O)NCCc1ccc(S(N)(=O)=O)cc1", "> 9.00"),
    ("CC(C)(O)[C@H](F)CNC(=O)c1cnc(-c2ccc3cc(C#N)cnn23)cc1Nc1cnc(Cl)cn1", "> 9.00"),
]

Next compound, please.
Data point: `CC(C)(O)[C@H](F)CNC(=O)c1cnc(-c2ccc3cc(C#N)cnn23)cc1Nc1cnc2c(c1)COCC2` ; pIC50 = > 9.00

----------
Reported pIC50 by item:
# test.system: IRAK4 enzyme (Homo sapiens (Human), UniProt Q9NWZ3)
# assay.remarks: biochemical
# Format: biochemical
# protocol.conditions: IRAK4 enzyme, TR-FRET, 500 μM ATP
Please report pIC50 as the negative decimal logarithm of the molar concentration, giving only the number.

Example entries and their recorded answers appear below.
# compound, test.system, pIC50
records = [
    ("CC(C)(O)[C@H](F)CNC(=O)c1cnc(-c2ccc3cc(C#N)cnn23)cc1NC1CS(=O)(=O)C1", "IRAK4 enzyme (Homo sapiens (Human), UniProt Q9NWZ3)", 8.70),
    ("CN(C)C(=O)[C@H](F)CNC(=O)c1cnc(-c2ccc3cc(C#N)cnn23)cc1NC12CCC(O)(CC1)CC2", "IRAK4 enzyme (Homo sapiens (Human), UniProt Q9NWZ3)", 9.00),
    ("C[C@H](NC(=O)c1cnc(-c2ccc3cc(C#N)cnn23)cc1NC12CCC(O)(CC1)CC2)C(=O)N1CCOCC1", "IRAK4 enzyme (Homo sapiens (Human), UniProt Q9NWZ3)", 7.46),
]

Entry `COC(=O)N1CCOC[C@H]1CNc1cc(-c2ccc3cc(C#N)cnn23)ncc1C(=O)NC[C@@H](F)C(C)(C)O` under IRAK4 enzyme (Homo sapiens (Human), UniProt Q9NWZ3) had pIC50 of 7.51

Form field, pIC50 with IRAK4 enzyme (Homo sapiens (Human), UniProt Q9NWZ3), item `CC(C)NC(=O)c1cnc(-c2ccc3cc(C#N)cnn23)cc1NC(C)C` : 7.80

Record for `CC(=O)N1C[C@H]2C[C@H](Nc3cc(-c4ccc5cc(C#N)cnn45)ncc3C(=O)NC[C@@H](F)C(C)(C)O)C[C@H]2C1` under target or system IRAK4 enzyme (Homo sapiens (Human), UniProt Q9NWZ3): pIC50 reported as 8.70

Observed pIC50, IRAK4 enzyme (Homo sapiens (Human), UniProt Q9NWZ3), `CC(C)Nc1cc(-c2ccc3cc(C#N)cnn23)ncc1C(=O)NNCC(C)(C)O` : 8.15

Param item: CNC(=O)C1CCC(Nc2cc(-c3ccc4cc(C#N)cnn34)ncc2C(=O)NC[C@@H](F)C(C)(C)O)CC1 (some centres unmarked) ; param system: IRAK4 enzyme (Homo sapiens (Human), UniProt Q9NWZ3); output pIC50: 9.00

----------
# Tested on: TNFα
# assay.remarks: cells
# Type: cell-based, human
# protocol.conditions: Homo sapiens, Monocyte, LPS-stimulated human monocytes, TNFα content; read-out: EC50 TNF
recorded.metric: pEC50
Please keep in mind that pEC50 is minus log10 of the molar concentration; only the number is needed.

Example molecules with recorded pEC50:
# molecule, pEC50
data = [
    ("CC(C)(O)[C@H](F)CNC(=O)c1cnc(-c2ccc3cc(C#N)cnn23)cc1N[C@H]1C[C@@H]2CC[C@H]1C2", 7.09),
    ("CC(C)(O)[C@H](F)CNC(=O)c1cnc(-c2ccc3cc(C#N)cnn23)cc1Nc1cccc(C(N)=O)c1", 6.84),
    ("COC(=O)NC1CCC(NC(=O)c2cnc(-c3ccc4cc(C#N)cnn34)cc2N[C@H]2CC[C@H](NC(=O)OC)CC2)CC1 (some centres unmarked)", 7.12),
    ("CC(C)(O)[C@H](F)CNC(=O)c1cnc(-c2ccc3cc(C#N)cnn23)cc1N[C@@H]1C[C@H]2CNC[C@H]2C1", 6.93),
    ("COC(=O)[C@@H](C)NC(=O)c1cnc(-c2ccc3cc(C#N)cnn23)cc1NC12CCC(O)(CC1)CC2", 6.86),
    ("CC(C)(O)[C@H](F)CNC(=O)c1cnc(-c2ccc3cc(C#N)cnn23)cc1Nc1cncnc1", 7.15),
    ("CC(C)(O)[C@H](F)CNC(=O)c1cnc(-c2ccc3cc(C#N)cnn23)cc1N[C@H]1CC[C@H](c2nnco2)CC1", 7.68),
    ("CC(C)(O)[C@H](F)CNC(=O)c1cnc(-c2ccc3cc(C#N)cnn23)cc1N[C@H]1CCC[C@@H](O)C1", 8.05),
]

Recorded pEC50 (molecule CC(C)(O)[C@H](F)CNC(=O)c1cnc(-c2ccc3cc(C#N)cnn23)cc1NC1CCC2(CCC(=O)N2)CC1 (some centres unmarked) ): 6.16

Form: molecule = `CC(C)(O)CCNc1cc(-c2ccc3cc(C#N)cnn23)ncc1C(=O)NC[C@@H](F)C(C)(C)O` ; pEC50 = 7.06

Per the records, this molecule ( `CC(C)Nc1cc(-c2ccc3cc(C#N)cnn23)ncc1C(=O)NCCS(N)(=O)=O` ) has pEC50 equal to 6.89
